Data provenance: the RNAGym collection of RNA variant scans (doi:10.1073/pnas.2313332121)

B1: TPR t1 (parent)
chain: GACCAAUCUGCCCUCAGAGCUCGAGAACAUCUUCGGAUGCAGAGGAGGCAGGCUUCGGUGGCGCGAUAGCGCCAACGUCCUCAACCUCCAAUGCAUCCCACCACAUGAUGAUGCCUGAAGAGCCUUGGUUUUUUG

Variants of: B1
Test: polymerase ribozyme fitness, log enrichment relative to wild type (log ratio); higher = more active; in vitro selection for triplet polymerase activity
Provide the recorded polymerase ribozyme fitness (log ratio) for the entries that follow.
Answers are plain numbers.

Please report polymerase ribozyme fitness (log ratio) for every entry that follows.
1. GACCAAUCUGCCCUCAGAGCUCGAGAACAUCUUCGGAUGCAGAGGAGGCAGGCUUCGGUGGCGCGAUAGCGCCAACGUCCUCAACCUCCAAUGCCUCCCACCACAUGAUGAUGCCUGAAGAGCCUUGGUUUUUUG [A95C]
2. GACCAAUCUGCCCUCAGAGCUCGAGAACAUCCUCGGAUGCAGAGGAGGCAGGCUUCGGUGGCGCGAUAGCGGCAACGUCCUCAACCUCCAAUGCAUCCCACCACAUGAUGAUGCCUUAAGAGCCUUGGUUUUUGG [U32C C72G G117U U134G]
3. GACCAAUCUGCCCGCAGAGCUCGAGAACAUCUUCGGAUGCAGAGGAGGCAGGCUUCGGUGGCGCGAUAGCGCAAACGUCCUCAACCUCCUAUGCAUCCCACCACAUGAUGAUGCCUGAAGAGCCUUGGUUUUUUG [U14G C73A A90U]
4. GACCAAUCUGCUCUCAGAGCUCGAGAACAUCUUCGGAUCCAGAGUAGGCAGGCUUCGGUGGCGCGAUAGCGCCAACGUCCUCAACCUCCAAUGCAUCCCUCCACAUGAUGAUGCCUGAAGAGCCUUGGUUGUUUG [C12U G39C G45U A100U U131G]
5. GACCAAUCUGUCCUCAGAGCUCGAGAACAUCUUCGGAUGCAGAGGAGGCCGGCUUCGGUUGCGCGAUAGCGCCAACAUCCUCAACCUCCAAUGCAUCCCACCACAUGAUGAUGCCUGAAGAACCUUGGUUUUUUG [C11U A50C G60U G77A G122A]
6. GACCAAUCUGCCCUCAGAGCUCGAGAACAUCUUCGGAUGCAGAGGAGGCAGGCUUCGGUGGCGCGUUAGCGCCAACGUCCUCAACCUCUAAUGCAUCCCACCACAUGAUGAUGCCUGAAGAGCCUUGGUUUUUUG [A66U C89U]
7. GACCAAUCUGCCCUCAGAGCACGAGAACAUCUUCGGAUGCAGAGGAGGGAGGCUUCGGUGUCGCGAUAGCGCCAACGUCCUCAACCUCCAAUGCAUCCCACCACAUGAUGAUGCCUGAAGAGCCUUGGUCUUUUG [U21A C49G G61U U130C]

[A]
1. -0.933
2. -1.41
3. -3.66
4. -3
5. 0.303
6. -1.51
7. -0.83

Please report polymerase ribozyme fitness (log ratio) for every entry that follows.
1. GAUCAAUCUGCCCCCAGAGCUCGAGAACAUCUUCGGAUGCAGAGGAGGCAGGCUUCGGUGGUGCGAUAGCGCCAACGUCCUCAACCUCCAAUGCAUCCCACCACAUGAUGAUGCCUGGAGAGCCUUGGCUUUUUG [C3U U14C C62U A118G U129C]
2. GACCAAUAUGCCCUCAGAGCUCGAGAACAUCUUCGGAUGCAUAAGAGGCAGGCUUCGGUGGCGCGAUAGCGCCAACGUCCUCAACCUCCAAUGCAUCCCACCACAUGAUGAUGUCUGAAGAGCCUUGGUUUUUUG [C8A G42U G44A C114U]
3. GACCAAUCUGCCCUUAGAGCUCGAGAACAUCUUCGGAUACAGAGGAGGCAGGCUUCGGUGGCGCGAUAGCGCCAACGUCCUCAACCUCCAAUGCAUCCCACCACAUGAUGAUGCCUGAAGAGCCUUGGUUUUUUG [C15U G39A]
4. GACCAAUCUGCCCUCAGAUCUCGAGAACAUCUUCGGAUGCAGUGGAGGCAGGCUUCGGUGGCGCGAUAGCGCCUACGUCCUCAACCUCCAAUGCAUCCCACCACAUGAUGAUGCCUGAAGAGCCUUGGUUUUUUG [G19U A43U A74U]
5. GACCAAUCUGUCCUCAGAGCUGGAGAACAUAUUCGGAUGCAGAGGAGGCAGGCUUCGGUGGCGCGAUAGCGGCAACGUCCUCAACCUCCAAUGCAUCCUACCACAUGAUGAUGCCUGAAGAGACUUGGUUUUUUG [C11U C22G C31A C72G C99U C123A]

[A]
1. -2.13
2. -1.01
3. -3.08
4. -3.22
5. -5.82

Please report polymerase ribozyme fitness (log ratio) for every entry that follows.
1. GACCUAUGUGCCCUAAGAGCUCGAGAACAUCUUCGGAUGCUGAGGAGAUAGGCUUCGGUGGCGCGAUAGCGCCAACGUCCUCAACCUCCAAUGCAUCCCACCACAUGAUGAUACCUGAAGAGCCUUGGCUUUUUG [A5U C8G C15A A41U G48A C49U G113A U129C]
2. GACCAAUCUGCCCGCAGAGCUCGAGAACAUCUUCGGAUGCAGAGGAGACGGGCUUCGGUGGCGCGAUAGCGACAACGUCCUCAACCUCCAAUGCAUCCCACCACAUGAUGAUGCCUGAACCGCCUUGGUUUUUUG [U14G G48A A50G C72A G120C A121C]
3. GACCAAUCUGCCCUCAGAGCUCGAGAACAUCUUCGGAUGCUUAGGAGGCAGGCUUCGGUGGCGCGAUAGCGCCAACGUCCUCAACCUCCAAUCCAUCCCACCACAUGAUGAUGCCUGAAGAGCCUUGGUUUUUUG [A41U G42U G93C]
4. GACCAAUUUGCCCUCUGAGCUCGAGAACAUCUUCGGAUGCAGAGGAGGCAGGCUUCGGUGGCGCGAUAGCGCCAACUUCCUCAACCUCCAAUGCAUCCCACCACAUGAUGAUGCCUGAAGAGUCUUGGUUUUUUG [C8U A16U G77U C123U]

[A]
[-5.44, -1.94, -3.1, 0.933]
